Assay read-out pIC50; system under study: UniProt:Q06187.
Sequence (Q06187 whole entry): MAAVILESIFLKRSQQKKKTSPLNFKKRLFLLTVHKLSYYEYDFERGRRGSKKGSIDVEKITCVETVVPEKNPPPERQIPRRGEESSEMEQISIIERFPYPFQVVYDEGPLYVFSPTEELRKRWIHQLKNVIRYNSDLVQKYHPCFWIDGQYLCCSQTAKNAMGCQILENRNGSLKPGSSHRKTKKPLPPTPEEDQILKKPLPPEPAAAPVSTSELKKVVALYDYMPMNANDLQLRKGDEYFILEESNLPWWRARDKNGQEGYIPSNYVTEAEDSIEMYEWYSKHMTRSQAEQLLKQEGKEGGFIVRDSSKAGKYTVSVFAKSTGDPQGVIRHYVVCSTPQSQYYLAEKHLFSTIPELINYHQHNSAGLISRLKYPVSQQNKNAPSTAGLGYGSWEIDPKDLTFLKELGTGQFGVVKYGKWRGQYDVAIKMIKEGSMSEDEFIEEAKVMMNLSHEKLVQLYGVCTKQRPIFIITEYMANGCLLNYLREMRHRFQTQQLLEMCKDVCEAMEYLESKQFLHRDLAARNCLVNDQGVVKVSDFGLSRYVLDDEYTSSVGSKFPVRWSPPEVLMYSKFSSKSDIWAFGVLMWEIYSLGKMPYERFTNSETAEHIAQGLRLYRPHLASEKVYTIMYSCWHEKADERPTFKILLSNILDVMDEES
# pIC50 = -log10(concentration in molar units)

I looked up `C=CC(=O)NCCC(=O)Nc1cccc(Nc2ncc(NC(=O)c3cc(NC(=O)c4cccc(C(F)(F)F)c4)ccc3C)cn2)c1` and its pIC50 for UniProt:Q06187 was 7.57

The molecule `C=CC(=O)N[C@@H](Cc1cnc[nH]1)C(=O)Nc1cccc(Nc2ncc(NC(=O)c3cc(NC(=O)c4cccc(C(F)(F)F)c4)ccc3C)cn2)c1` on UniProt:Q06187: pIC50 was 7.19

Result for `C=CC(=O)N[C@@H](CO)C(=O)Nc1cccc(Nc2ncc(NC(=O)c3cc(NC(=O)c4cccc(C(F)(F)F)c4)ccc3C)cn2)c1` , tested on UniProt:Q06187, pIC50: 7.56

Record for `C=CC(=O)NCC(=O)Nc1cccc(Nc2ncc(Nc3cc(NC(=O)c4cccc(C(F)(F)F)c4)ccc3C)cn2)c1` under target or system UniProt:Q06187: pIC50 reported as 7.78
